# Target under test: AT1 L112A receptor (Rattus norvegicus, UniProt P25095, L112A)
# Construct: expressed in transfected cells; host or cells: COS7
# Sequence (P25095 whole entry L112A): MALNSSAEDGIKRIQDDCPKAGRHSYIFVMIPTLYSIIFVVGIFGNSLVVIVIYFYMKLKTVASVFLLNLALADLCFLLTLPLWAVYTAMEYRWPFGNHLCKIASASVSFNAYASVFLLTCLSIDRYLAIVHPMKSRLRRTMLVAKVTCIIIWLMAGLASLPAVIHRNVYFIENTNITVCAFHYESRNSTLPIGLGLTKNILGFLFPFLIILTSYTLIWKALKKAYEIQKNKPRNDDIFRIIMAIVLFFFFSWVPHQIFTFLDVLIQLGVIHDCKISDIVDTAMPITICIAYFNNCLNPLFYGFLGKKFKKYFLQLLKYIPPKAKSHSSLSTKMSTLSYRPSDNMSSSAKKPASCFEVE
# Protocol description: Immunoblotting of ERK 1/2 activation in COS7 cells overexpressing AT1-L112A receptor
# Type: cell-based
# Measurement setup: 1 µM ligands or 0.1 µM Ang II, 10 min, n = 5, vs. (-)

- Molecular string: "CCCc1nc(C(C)(C)O)c(C(N)=O)n1Cc1ccc(-c2cc(Cc3ccc(O)cc3)ccc2-c2nnn[nH]2)cc1"
  ERK1/2 activation: "activated ERK1/2"
- Molecular string: "CCCc1nc(C(C)(C)O)c(C(=O)O)n1Cc1ccc(-c2cc(Cc3ccc(O)cc3)ccc2-c2nnn[nH]2)cc1"
  ERK1/2 activation: "activated ERK1/2"

----------
Item-by-item account of Kd
# Target under test: AT1 N295A receptor (Rattus norvegicus, UniProt P25095, N295A)
# Sequence (P25095 whole entry N295A): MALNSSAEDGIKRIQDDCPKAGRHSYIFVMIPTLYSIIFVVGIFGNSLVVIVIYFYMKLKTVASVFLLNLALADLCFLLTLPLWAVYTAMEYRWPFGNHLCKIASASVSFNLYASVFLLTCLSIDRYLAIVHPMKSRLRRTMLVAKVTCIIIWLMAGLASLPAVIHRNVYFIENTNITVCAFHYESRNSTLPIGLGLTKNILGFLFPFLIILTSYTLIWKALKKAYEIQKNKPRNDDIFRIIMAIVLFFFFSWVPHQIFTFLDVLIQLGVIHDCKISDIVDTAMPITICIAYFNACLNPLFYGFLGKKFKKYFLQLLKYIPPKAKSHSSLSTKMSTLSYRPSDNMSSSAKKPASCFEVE
# Protocol description: Competition binding study, 125I-[Sar1,Ile8]Ang II, AT1 N295A receptor
# Measurement setup: competition with 125I-[Sar1,Ile8]Ang II, n = 3, mean ± standard error, read-out: Binding affinity (Kd)

- Compound: "CCCc1nc(C(C)(C)O)c(C(=O)O)n1Cc1ccc(-c2cc(Cc3ccc(O)cc3)ccc2-c2nnn[nH]2)cc1"
  Measurement unit: "µM"
  Value prefix: ">"
  Kd: 10
- Compound: "CCCc1nc(C(C)(C)O)c(C(=O)O)n1Cc1ccc(-c2ccccc2-c2nnn[nH]2)cc1"
  Measurement unit: "µM"
  Value prefix: "="
  Kd: 0.334
- Compound: "CC[C@H](C)[C@H](NC(=O)[C@@H]1CCCN1C(=O)[C@H](Cc1c[nH]cn1)NC(=O)[C@@H](NC(=O)[C@H](Cc1ccc(O)cc1)NC(=O)[C@@H](NC(=O)[C@H](CCCN=C(N)N)NC(=O)CNC)C(C)C)[C@@H](C)CC)C(=O)O [[Sar^1,Ile^8]Ang II, [Sar^1, Ile^8]Ang II, reference compound]"
  Measurement unit: "µM"
  Value prefix: "="
  Kd: 0.007
- Compound: "CCCc1nc(C(C)(C)O)c(C(N)=O)n1Cc1ccc(-c2cc(Cc3ccc(O)cc3)ccc2-c2nnn[nH]2)cc1"
  Measurement unit: "µM"
  Value prefix: ">"
  Kd: 10
- Compound: "CCCc1nc(C(C)(C)O)c(C(N)=O)n1Cc1ccc(-c2ccccc2-c2nnn[nH]2)cc1"
  Measurement unit: "µM"
  Value prefix: "="
  Kd: 0.069

----------
# Target under test: AT1 Q257A receptor (Rattus norvegicus, UniProt P25095, Q257A)
# Sequence (P25095 whole entry Q257A): as the sequence (P25095 whole entry L112A) above, with A112L, Q257A counted along it
# Protocol description: Competition binding study, 125I-[Sar1,Ile8]Ang II, AT1 Q257A receptor
# Measurement setup: competition with 125I-[Sar1,Ile8]Ang II, n = 3, mean ± standard error, read-out: Binding affinity (Kd)
pKd: −log10 of the molar value.
Collected pKd values appear next to each entry.
Test readout: pKd

- Compound: "CCCc1nc(C(C)(C)O)c(C(N)=O)n1Cc1ccc(-c2ccccc2-c2nnn[nH]2)cc1"
  Target under test: "AT1 Q257A receptor (Rattus norvegicus, UniProt P25095, Q257A)"
  Assay value: 7.70
- Compound: "CC[C@H](C)[C@H](NC(=O)[C@@H]1CCCN1C(=O)[C@H](Cc1c[nH]cn1)NC(=O)[C@@H](NC(=O)[C@H](Cc1ccc(O)cc1)NC(=O)[C@@H](NC(=O)[C@H](CCCN=C(N)N)NC(=O)CNC)C(C)C)[C@@H](C)CC)C(=O)O [[Sar^1,Ile^8]Ang II, [Sar^1, Ile^8]Ang II, reference compound]"
  Target under test: "AT1 Q257A receptor (Rattus norvegicus, UniProt P25095, Q257A)"
  Assay value: 8.48
- Compound: "CCCc1nc(C(C)(C)O)c(C(N)=O)n1Cc1ccc(-c2cc(Cc3ccc(O)cc3)ccc2-c2nnn[nH]2)cc1"
  Target under test: "AT1 Q257A receptor (Rattus norvegicus, UniProt P25095, Q257A)"
  Assay value: 8.57
- Compound: "CCCc1nc(C(C)(C)O)c(C(=O)O)n1Cc1ccc(-c2cc(Cc3ccc(O)cc3)ccc2-c2nnn[nH]2)cc1"
  Target under test: "AT1 Q257A receptor (Rattus norvegicus, UniProt P25095, Q257A)"
  Assay value: 7.85
- Compound: "CCCc1nc(C(C)(C)O)c(C(=O)O)n1Cc1ccc(-c2ccccc2-c2nnn[nH]2)cc1"
  Target under test: "AT1 Q257A receptor (Rattus norvegicus, UniProt P25095, Q257A)"
  Assay value: 6.64

----------
# Target under test: AT1 Y292A receptor (Rattus norvegicus, UniProt P25095, Y292A)
# Sequence (P25095 whole entry Y292A): as the sequence (P25095 whole entry N295A) above, with Y292A, A295N counted along it
# Protocol description: Competition binding study, 125I-[Sar1,Ile8]Ang II, AT1 Y292A receptor
# Measurement setup: competition with 125I-[Sar1,Ile8]Ang II, n = 3, mean ± standard error, read-out: Binding affinity (Kd)

- Compound: "CC[C@H](C)[C@H](NC(=O)[C@@H]1CCCN1C(=O)[C@H](Cc1c[nH]cn1)NC(=O)[C@@H](NC(=O)[C@H](Cc1ccc(O)cc1)NC(=O)[C@@H](NC(=O)[C@H](CCCN=C(N)N)NC(=O)CNC)C(C)C)[C@@H](C)CC)C(=O)O [[Sar^1,Ile^8]Ang II, [Sar^1, Ile^8]Ang II, reference compound]"
  Kd (nM): 2.1
- Compound: "CCCc1nc(C(C)(C)O)c(C(=O)O)n1Cc1ccc(-c2cc(Cc3ccc(O)cc3)ccc2-c2nnn[nH]2)cc1 [R781253]"
  Kd (nM): 95
- Compound: "CCCc1nc(C(C)(C)O)c(C(=O)O)n1Cc1ccc(-c2ccccc2-c2nnn[nH]2)cc1 [Olmesartan, olmesartan]"
  Kd (nM): 47
- Compound: "CCCc1nc(C(C)(C)O)c(C(N)=O)n1Cc1ccc(-c2ccccc2-c2nnn[nH]2)cc1 [R239470]"
  Kd (nM): 6.3
- Compound: "CCCc1nc(C(C)(C)O)c(C(N)=O)n1Cc1ccc(-c2cc(Cc3ccc(O)cc3)ccc2-c2nnn[nH]2)cc1 [R794847]"
  Kd (nM): 30

----------
# Target under test: AT1 wild-type receptor (Rattus norvegicus, UniProt P25095)
# Construct: expressed in transfected cells; host or cells: COS7
# Sequence (P25095 whole entry): as the sequence (P25095 whole entry N295A) above, with A295N counted along it
# Protocol description: Immunoblotting of ERK 1/2 activation in COS7 cells overexpressing AT1 wild-type receptor
# Format: cell-based
# Measurement setup: AT1 wild-type receptor, COS7 cells; 1 µM ligands or 0.1 µM Ang II, 10 min; n = 5; vs. (-)
Test readout: ERK1/2 activation

- Molecular string: "CCCc1nc(C(C)(C)O)c(C(N)=O)n1Cc1ccc(-c2cc(Cc3ccc(O)cc3)ccc2-c2nnn[nH]2)cc1"
  Assay value: "activated ERK1/2"
- Molecular string: "CCCc1nc(C(C)(C)O)c(C(=O)O)n1Cc1ccc(-c2cc(Cc3ccc(O)cc3)ccc2-c2nnn[nH]2)cc1"
  Assay value: "activated ERK1/2"
